Experiment: Pharmacokinetics of compounds 1–11 in rat plasma (UPLC-TQ/MS) after oral administration of HYD and plus-minus Haizao/Gancao decoctions
Assay type: in vivo, Wistar rats (PTU-induced model of hypothyroidism)
Conditions: Wistar, 10 mL/kg, group HYD-GH (HYD minus Gancao and Haizao; HYD-GC-HZ), 10 mL/kg intragastrically, model rats, n = 6, mean ± S.D.
testReadout: Tmax (min)

Look over these answered cases.
C[C@@H]1O[C@@H](O[C@H]2[C@H](Oc3cc(O)c4c(c3)O[C@H](c3ccc(O)cc3)CC4=O)O[C@H](CO)[C@@H](O)[C@@H]2O)[C@H](O)[C@H](O)[C@H]1O
9
COc1ccc2ccc(=O)oc2c1CC=C(C)C
31.8

[a] COc1ccc(-c2cc(=O)c3c(OC)c(OC)c(OC)c(OC)c3o2)cc1OC
[b] COc1c2ccoc2cc2oc(=O)ccc12
Ask | Parameter check: reported Tmax is higher for which label, a or b ? Answer = label.
Reply | a

* * *

Assay: Pharmacokinetics of compounds 1–11 in rat plasma (UPLC-TQ/MS) after oral administration of HYD and plus-minus Haizao/Gancao decoctions
Type: in vivo, Wistar rats (PTU-induced model of hypothyroidism)
Conditions: Wistar, 1 mL/kg, group GC (extract of Gancao), 1 mL/kg intragastrically, model rats, n = 6, mean ± S.D.
testReadout: Cmax (ng/mL)

CC1(C)[C@@H](O)CC[C@]2(C)[C@H]3C(=O)C=C4[C@@H]5C[C@@](C)(C(=O)O)CC[C@]5(C)CC[C@@]4(C)[C@]3(C)CC[C@@H]12 [Compound 11, glycyrrhetinic acid]
776

[A] O=C1C[C@@H](c2ccc(O[C@@H]3O[C@H](CO)[C@@H](O)[C@H](O)[C@H]3O)cc2)Oc2cc(O)ccc21 [Compound 1, liquiritin]
[B] O=C1C[C@@H](c2ccc(O)cc2)Oc2cc(O)ccc21 [Compound 6, liquiritigenin]
Ask | Param metric = Cmax; output whichever of A , B has the minimum value. I would appreciate it if you answered with the label of your choice.
Reply | A

* * *

Assay: Pharmacokinetics of compounds 1–11 in rat plasma (UPLC-TQ/MS) after oral administration of HYD and plus-minus Haizao/Gancao decoctions
Assay type: in vivo, Wistar rats (PTU-induced model of hypothyroidism)
Conditions: Wistar, 10 mL/kg, group HYD-GH (HYD minus Gancao and Haizao; HYD-GC-HZ), 10 mL/kg intragastrically, model rats, n = 6, mean ± S.D.
testReadout: AUC(0-t) (ng·h/mL)

C[C@@H]1O[C@@H](O[C@H]2[C@H](Oc3cc(O)c4c(c3)O[C@H](c3ccc(O)cc3)CC4=O)O[C@H](CO)[C@@H](O)[C@@H]2O)[C@H](O)[C@H](O)[C@H]1O
565

[A] COc1c2ccoc2cc2oc(=O)ccc12
[B] COc1ccc2ccc(=O)oc2c1CC=C(C)C
[C] COc1ccc(-c2cc(=O)c3c(OC)c(OC)c(OC)c(OC)c3o2)cc1OC
Ask | Arrange these molecules by their AUC(0-t), starting with the largest number. Give the labels in the order requested.
Reply | C, A, B
(C: 1180 ng·h/mL, A: 786 ng·h/mL, B: 98.5 ng·h/mL)

* * *

Experiment: Pharmacokinetics of compounds 1–11 in rat plasma (UPLC-TQ/MS) after oral administration of HYD and plus-minus Haizao/Gancao decoctions
Assay type: in vivo, Wistar rats (PTU-induced model of hypothyroidism)
Conditions: Wistar, 2 mL/kg, group GH (extract of Gancao and Haizao), 2 mL/kg intragastrically, model rats, n = 6, mean ± S.D.
testReadout: Tmax (h)

[1] CC1(C)[C@@H](O)CC[C@]2(C)[C@H]3C(=O)C=C4[C@@H]5C[C@@](C)(C(=O)O)CC[C@]5(C)CC[C@@]4(C)[C@]3(C)CC[C@@H]12
[2] CC1(C)[C@@H](O[C@H]2O[C@H](C(=O)O)[C@@H](O)[C@H](O)[C@H]2O[C@@H]2O[C@H](C(=O)O)[C@@H](O)[C@H](O)[C@H]2O)CC[C@]2(C)[C@H]3C(=O)C=C4[C@@H]5C[C@@](C)(C(=O)O)CC[C@]5(C)CC[C@@]4(C)[C@]3(C)CC[C@@H]12
[3] O=C1C[C@@H](c2ccc(O)cc2)Oc2cc(O)ccc21
[4] O=C1C[C@@H](c2ccc(O[C@@H]3O[C@H](CO)[C@@H](O)[C@H](O)[C@H]3O)cc2)Oc2cc(O)ccc21
Ask | Order these compounds (above) by their Tmax, from the smallest value upward. Answer by listing the labels in the order asked for.
Reply | 4, 2, 3, 1

* * *

Test: Pharmacokinetics of compounds 1–11 in rat plasma (UPLC-TQ/MS) after oral administration of HYD and plus-minus Haizao/Gancao decoctions
Type: in vivo, Wistar rats (PTU-induced model of hypothyroidism)
Settings: Wistar, 11 mL/kg, group HYD-GC (HYD minus Gancao), 11 mL/kg intragastrically, model rats, n = 6, mean ± S.D.
testReadout: Tmax (min)

COc1ccc(-c2cc(=O)c3c(OC)c(OC)c(OC)c(OC)c3o2)cc1OC
53.4

[I] C[C@@H]1O[C@@H](O[C@H]2[C@H](Oc3cc(O)c4c(c3)O[C@H](c3ccc(O)cc3)CC4=O)O[C@H](CO)[C@@H](O)[C@@H]2O)[C@H](O)[C@H](O)[C@H]1O
[II] COc1ccc2ccc(=O)oc2c1CC=C(C)C
Ask | Recorded Tmax values differ for I and II ; which one is higher? Return value: the label identifying the chosen record.
Reply | II

* * *

Assay: Pharmacokinetics of compounds 1–11 in rat plasma (UPLC-TQ/MS) after oral administration of HYD and plus-minus Haizao/Gancao decoctions
Type: in vivo, Wistar rats (PTU-induced model of hypothyroidism)
Conditions: Wistar, 11 mL/kg, group HYD-HZ (HYD minus Haizao), 11 mL/kg intragastrically, model rats, n = 6, mean ± S.D.
testReadout: half-life (h)

Please review the entries below; each comes with its answer.
COc1c2ccoc2cc2oc(=O)ccc12 [Compound 8, bergapten]
1.92
CC1(C)[C@@H](O[C@H]2O[C@H](C(=O)O)[C@@H](O)[C@H](O)[C@H]2O[C@@H]2O[C@H](C(=O)O)[C@@H](O)[C@H](O)[C@H]2O)CC[C@]2(C)[C@H]3C(=O)C=C4[C@@H]5C[C@@](C)(C(=O)O)CC[C@]5(C)CC[C@@]4(C)[C@]3(C)CC[C@@H]12 [Compound 7, glycyrrhizic acid]
1.84

[P] COc1ccc(-c2cc(=O)c3c(OC)c(OC)c(OC)c(OC)c3o2)cc1OC [Compound 9, nobiletin]
[Q] COc1ccc2ccc(=O)oc2c1CC=C(C)C [Compound 10, osthole]
[R] C[C@@H]1O[C@@H](O[C@H]2[C@H](Oc3cc(O)c4c(c3)O[C@H](c3ccc(O)cc3)CC4=O)O[C@H](CO)[C@@H](O)[C@@H]2O)[C@H](O)[C@H](O)[C@H]1O [Compound 2, naringin]
Ask | Arrange these 3 molecules in increasing order of half-life. Kindly provide the labels arranged according to the requested ordering.
Reply | Q, R, P

* * *

Assay: Pharmacokinetics of compounds 1–11 in rat plasma (UPLC-TQ/MS) after oral administration of HYD and plus-minus Haizao/Gancao decoctions
Type: in vivo, Wistar rats (PTU-induced model of hypothyroidism)
Conditions: Wistar, 11 mL/kg, group HYD-HZ (HYD minus Haizao), 11 mL/kg intragastrically, model rats, n = 6, mean ± S.D.
testReadout: Tmax (min)

Reference set (2 entries):
COc1c2ccoc2cc2oc(=O)ccc12
48.6
COc1ccc2ccc(=O)oc2c1CC=C(C)C
36.6

[1] O=C1C[C@@H](c2ccc(O[C@@H]3O[C@H](CO)[C@@H](O)[C@H](O)[C@H]3O)cc2)Oc2cc(O)ccc21
[2] COc1ccc(-c2cc(=O)c3c(OC)c(OC)c(OC)c(OC)c3o2)cc1OC
[3] CC1(C)[C@@H](O[C@H]2O[C@H](C(=O)O)[C@@H](O)[C@H](O)[C@H]2O[C@@H]2O[C@H](C(=O)O)[C@@H](O)[C@H](O)[C@H]2O)CC[C@]2(C)[C@H]3C(=O)C=C4[C@@H]5C[C@@](C)(C(=O)O)CC[C@]5(C)CC[C@@]4(C)[C@]3(C)CC[C@@H]12
Ask | Give the ascending ranking of the items by reported Tmax. Put the labels in the requested order and list them out.
Reply | 2, 1, 3

* * *

Assay: Pharmacokinetics of compounds 1–11 in rat plasma (UPLC-TQ/MS) after oral administration of HYD and plus-minus Haizao/Gancao decoctions
Type: in vivo, Wistar rats (PTU-induced model of hypothyroidism)
Conditions: Wistar, 11 mL/kg, group HYD-GC (HYD minus Gancao), 11 mL/kg intragastrically, model rats, n = 6, mean ± S.D.
testReadout: AUC(0-t) (ng·h/mL)

COc1c2ccoc2cc2oc(=O)ccc12
470

[P] COc1ccc(-c2cc(=O)c3c(OC)c(OC)c(OC)c(OC)c3o2)cc1OC
[Q] C[C@@H]1O[C@@H](O[C@H]2[C@H](Oc3cc(O)c4c(c3)O[C@H](c3ccc(O)cc3)CC4=O)O[C@H](CO)[C@@H](O)[C@@H]2O)[C@H](O)[C@H](O)[C@H]1O
[R] COc1ccc2ccc(=O)oc2c1CC=C(C)C
Ask | Arrange these compounds by their AUC(0-t), starting with the largest number. Answer by naming the labels in the order asked.
Reply | P, Q, R
